Recorded values, source ChEMBL document CHEMBL1201862.

Test system: SNB-78
Assay Procedure: NCI tumour cell line growth inhibition, 48 h
Calls of active or inactive are those of the source. Cut-off read from the data, not from the text of the source: active = GI50 up to about 1.1 µM and inactive = higher.
Assay Endpoint: GI50

Return reported GI50. Input compound: COc1ccc2c(NCCCCCCNc3c4ccccc4nc4cc(OC)ccc34)c3ccccc3nc2c1
0.12 µM (active)

Fill in reported GI50 for this entry: O=C(Cc1ccccc1)N/N=C(\C1=Nc2ccc([N+](=O)[O-])cc2NC1O)C(O)c1ccc([N+](=O)[O-])cc1 (stereo not drawn)
> 100 µM (inactive)

Kindly indicate its recorded GI50. Item: N#CC(Nc1cccc(C(F)(F)F)c1)c1ccccc1C(F)(F)F (stereo not drawn)
20.1 µM (inactive)

====

System: SF-539
Assay Procedure: NCI tumour cell line growth inhibition, 48 h
Active and inactive are the calls of the source. Cut-off read from the data, not from the text of the source: active = GI50 up to about 1.1 µM and inactive = higher. Where a SMILES comes first, the peptide text is derived from it. The star is where a group is joined. Boc = CC(C)(C)OC(=O)*; nBu = CCCC*
Assay Endpoint: GI50

Send back SF-539 GI50 of CCOC1=C/C(=N\Nc2ccc([N+](=O)[O-])cc2)CCC1 only.
48.1 µM (inactive)

For SF-539, give the measured GI50 of the entry CCCCOc1ccc(CC(NC(=O)OC(C)(C)C)C(=O)NC(C)C(=O)NC(Cc2ccccc2)C(=O)NCC(N)=O)cc1 (stereo not drawn) (Boc-Y(nBu)AFG-NH2; configuration not given here)
> 100 µM (inactive)

Quote GI50 with test system SF-539 for O=C(O)CNS(=O)(=O)c1ccc(NCc2ccccc2)cc1
> 100 µM (inactive)

====

Test system: SK-MEL-28
Assay Procedure: NCI tumour cell line growth inhibition, 48 h
Activity calls are given as the source filed them. Cut-off read from the data, not from the text of the source: active = GI50 up to about 1.1 µM and inactive = higher.
In this exercise, the only acceptable responses are Y = active, N = inactive

Recorded test call requested for Oc1cc(O)c2c(-c3c(O)c(-c4ccc(O)c(O)c4)[o+]c4cc(O)cc(O)c34)c(O)c(-c3ccc(O)c(O)c3)[o+]c2c1
N

GET /call?item= Clc1ccc(C(Cc2ccccc2)c2c(Cl)nc(N3CCNCC3)nc2Cl)cc1 (stereo not given) returns the recorded outcome of this test.
N

Fill in: this test's call for N#CN1CCC2CC(=O)CCC2C1 (stereo not given) is ___
N

Answer briefly: the call reported for O=C(CC(c1ccccc1)c1c(O)c2ccccc2oc1=O)c1ccccc1 (stereo not given) in this assay.
N

I'd appreciate the recorded outcome for CC1=NOC(=O)/C1=C/c1ccc2c(c1)OCO2 from this test.
N

Tell me the assay call for O=C(O)/C=C/C(=O)Nc1nc[nH]n1 please.
N

In this assay, the call recorded for O=C(NCCCc1cn[nH]c(=O)n1)c1cccc2nc3ccccc3nc12 was what?
N

Could you kindly confirm the outcome this assay logged for C/C(=N/Nc1nc(C)cc(O)n1)C(=O)O ?
N

Per the assay record, what outcome was assigned to O=C1CSC(c2c[nH]c3ccccc23)N1c1ccc(Cl)cc1 (stereo not given) ?
N

Any idea what this test logged for CC1=C(C(=O)Nc2cccc(Cl)c2)C(c2ccccc2F)C(C(=O)Nc2cccc(Cl)c2)=C(C)N1 ?
N

GET /call?item= O=c1o[nH]/c(=N/c2ccccc2)n1-c1ccccc1 returns the recorded outcome of this test.
N

Please share the test call associated with CCOC(=O)/C=C/C1OC(C)(C)OC1/C=C/C(=O)OCC (stereo not given) .
N

Answer briefly: the call reported for CC1(c2ccc(F)cc2)C2C(=O)NC(=O)C1C(=O)NC2=O (stereo not given) in this assay.
N

Query: recorded result category for CCOC(=O)C(=O)Nc1cc(Cl)ccc1Cl in this test
N

Per the assay record, what outcome was assigned to CC1=NN(c2ccccc2)C(=O)C1=C1SCCS1 ?
N

What was the test verdict on NC1=NN(c2ccccc2)C(=O)C1C(=O)C(=O)Nc1ccc(Cl)cc1 (stereo not given) ?
N

What is the recorded call for this compound in the test? CCC1CN2CCC3(c4ccccc4)CC(C(=O)OC)=CC1C23 (stereo not given)
N

Called result for CCOC1=C/C(=N\Nc2ccc([N+](=O)[O-])cc2)CCC1
N

Could you please tell me the result logged for ClC1CCC2OOC1O2 (stereo not given) in this assay?
N

Tell me the assay call for N#CC1(C#N)C(C#N)(C#N)C12CCCCCC2 please.
N

Identify the outcome logged in this assay for the compound shown: Cc1ccc(SCC(CF)OC(C)n2cnc3c(O)nc(N)nc32)cc1 (stereo not given)
N

Give the logged outcome of this assay for the following compound: c1ccc([P+](c2ccccc2)(c2ccccc2)C2Sc3ccccc3S2)cc1
N

What is the recorded call for this compound in the test? C[Si](C)(OCCS(=O)(=O)O)C1S(=O)(=O)OCCOS1(=O)=O
N

Record request — test call for O=[N+]([O-])/C=C/c1cn(CCCCCn2cc(/C=C/[N+](=O)[O-])c3ccccc32)c2ccccc12
Y

What classification did CC1=C(C)C(=O)c2c(cc3ccccn23)C1=O end up with in this test?
N

Which outcome was entered for the compound NC(Cc1ccc(O)c(O)c1)P(=O)(O)O (stereo not given) in this test?
N

What was the test verdict on CN(NC(=O)c1ccco1)C1=NCCN1 ?
N

Field: outcome | Entry: O=C(CCC(=O)N/N=C/c1ccccc1O)N/N=C/c1ccccc1O
N

Short answer needed: outcome of this test for CCCc1cc(-c2ccc(-c3cc(CCC)c(C=O)[nH]3)s2)[nH]c1C=O ?
N

Would you mind telling me which call this test gave OC1=C(c2ccccc2)C2=NCCN2c2ccccc21 ?
N

Recorded call for C=CCCn1nc(-c2ccccc2)oc1=O ?
N

Query: recorded result category for CCOC(=O)C(CC(C)C)NC(=O)C(Cc1ccc(N(CCCl)CCCl)cc1)NC(C)=O (stereo not given) in this test
N

# outcome recorded in this test, key = Nc1ccc(OCC(O)N2C(=O)c3ccccc3C2=O)cc1 (stereo not given)
N

Per the records of this test, what outcome belongs to N#CC(Nc1cccc(C(F)(F)F)c1)c1ccccc1C(F)(F)F (stereo not given) ?
N

Recorded test outcome, item COC(=O)/C=C/c1cnc2c(c1)oc(=O)n2CCc1ccccn1
N

Field: outcome | Entry: O=C1c2c(ccc3c2CCCC3)CC1Cc1ccc2c(c1)CCCC2 (stereo not given)
N

Short answer needed: outcome of this test for CCCCCCCCCCCCCCCCCCC1=C(O)C(=O)C=C(OC)C1=O ?
N

Hi, do you know how C=C(CC[C@@H](C)[C@H]1CC[C@@]2(C)C3=C(CC[C@]12C)[C@@]1(C)CC[C@H](O)[C@@H](C)C1CC3)C(C)C (stereo not given in full) came out in this test?
N

What did this assay record as the result for CC(=O)On1c(-c2ccccc2-c2nc3ccccc3n2OC(C)=O)nc2ccccc21 ?
N

Record request — test call for O=C1c2ccccc2C(=O)C1(O)c1c[nH]c2ccccc12
N
